Attribute: KINOMEscan: JNK3
- Measured Target: panel of 442 kinases (Homo sapiens, UniProt P53779)
- Construct: purchased KINOMEscan
- Sequence (P53779 whole entry): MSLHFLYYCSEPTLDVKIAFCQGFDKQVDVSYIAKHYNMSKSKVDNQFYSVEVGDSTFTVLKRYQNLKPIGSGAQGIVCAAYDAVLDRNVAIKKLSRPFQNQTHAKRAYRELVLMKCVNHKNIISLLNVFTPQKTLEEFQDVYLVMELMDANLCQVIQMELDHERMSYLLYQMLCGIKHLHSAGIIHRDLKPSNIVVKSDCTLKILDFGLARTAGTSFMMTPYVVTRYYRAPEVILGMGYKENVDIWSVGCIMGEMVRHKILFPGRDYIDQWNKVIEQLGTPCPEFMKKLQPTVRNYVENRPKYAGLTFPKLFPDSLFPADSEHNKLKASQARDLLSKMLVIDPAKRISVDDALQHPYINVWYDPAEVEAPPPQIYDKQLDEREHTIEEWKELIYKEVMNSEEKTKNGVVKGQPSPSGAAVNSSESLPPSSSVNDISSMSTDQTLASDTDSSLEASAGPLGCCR
- Format: binding
- Test Parameters: Compound Concentration 10 µM
Kindly provide the number alone.

CCOc1cc(C(=O)N2CCC(N3CCN(C)CC3)CC2)ccc1Nc1ncc2c(n1)N(C1CCCC1)c1ccccc1C(=O)N2C :: 74
COc1cc(C(=O)N2CCC(N3CCN(C)CC3)CC2)ccc1Nc1ncc2c(n1)N(C)c1ccccc1C(=O)N2C :: 77
COc1cc(C(=O)N2CCC(N3CCN(C)CC3)CC2)ccc1Nc1ncc2c(n1)N1CCc3cccc(c31)C(=O)N2C :: 43

Give measured KINOMEscan: JNK3 for "COc1cc(C(=O)N2CCC(N3CCN(C)CC3)CC2)ccc1Nc1ncc2c(n1)N(C1CCCC1)c1ccccc1C(=O)N2C" (panel of 442 kinases (Homo sapiens, UniProt P53779)). 48
